Tested on: SNB-19 CNS
protocol: NCI tumour cell line growth inhibition, 48 h
outcome_measure: GI50

# count of solved cases: 8
> print(dat)
                                   compound  outcome.measure    result
1  CN(C)c1ccc(/C=c2/c3ccccc3n3c2c2cc(F)ccc2[n+]3C)cc1             GI50   10.2 µM
2  O=C(Nc1cc(Oc2cc(F)c(NC(=O)C3(C(=O)Nc4ccc(F)cc4)CC3)cc2F)ccn1)C1CC1             GI50   3.75 µM
3  O=C(/C=C/C12c3ccccc3C(c3ccccc31)C1C(=O)NC(=O)C12)c1ccc(Cl)cc1 (centres undefined)             GI50   1.58 µM
4        NC(=Nc1ccc(N)cc1)C(N)=Nc1ccc(N)cc1             GI50  > 100 µM
5  COc1ccc(C(CC(=O)c2ccccc2)C(C(=O)c2ccccc2)C(c2ccc(OC)cc2)C2C(=O)NC(=S)NC2=O)cc1 (centres undefined)             GI50   24.9 µM
6  COc1ccc(N(/C=C/C(=O)C(F)(F)F)CC(=O)c2ccc(Cl)cc2)cc1             GI50   18.8 µM
7  CCOC(=O)/C=C/C(=O)[C@H](CC(C)C)NC(=O)[C@H](Cc1ccccc1)NC(=O)OCc1ccccc1             GI50   12.6 µM
8  Nc1ccccc1C#C/C=C\C#Cc1c(F)c(F)c(F)c(F)c1F             GI50     26 µM

Next item in the queue.
Recorded GI50 for COc1ccc(/C=C\c2cc(OC)c(OC)c(OC)c2)cc1OCC(=O)Nc1ccc2nc(C)sc2c1 , please? 3.89 µM
